- TEST SYSTEM: dopamine autoreceptor (D2) (Rattus norvegicus)
- Construct: homogenized rat striatal brain tissue; from tissue; host or cells: rat striatum, homogenate
- Sequence (P61169 whole entry): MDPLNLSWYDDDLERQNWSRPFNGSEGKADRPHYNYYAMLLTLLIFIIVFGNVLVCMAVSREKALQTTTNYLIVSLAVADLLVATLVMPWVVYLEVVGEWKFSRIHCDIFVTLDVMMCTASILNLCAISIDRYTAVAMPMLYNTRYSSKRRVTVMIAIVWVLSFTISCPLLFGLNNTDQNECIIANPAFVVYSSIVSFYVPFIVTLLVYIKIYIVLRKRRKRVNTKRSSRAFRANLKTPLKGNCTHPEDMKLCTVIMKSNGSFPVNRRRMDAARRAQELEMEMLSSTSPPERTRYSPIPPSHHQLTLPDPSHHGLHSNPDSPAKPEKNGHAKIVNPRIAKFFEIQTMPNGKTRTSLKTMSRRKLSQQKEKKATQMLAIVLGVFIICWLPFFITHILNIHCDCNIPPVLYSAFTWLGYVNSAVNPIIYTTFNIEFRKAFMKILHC
- MEASUREMENT DESCRIPTION: Affinity for the dopamine autoreceptor, 3H-quinpirole binding in homogenized rat striatal brain tissue (D2 Quin.)
- EXPERIMENTAL SETUP: 3H-quinpirole, homogenized rat striatal brain tissue; read-out: IC50 (nM) D2 Quin.
# Lookup of reported IC50 keyed by entry

- Cc1ccc(CNCCOc2cccc3[nH]c(Cc4ccccc4)nc23)cc1 [Example 5]: 54.8 nM
- FC(F)(F)c1nc2c(OCCNCc3cccs3)cccc2[nH]1 [Example 7]: 1.03 nM
- FC(F)(F)c1nc2c(OCCN3CCc4ccccc4C3)cccc2[nH]1 [Example 13]: 8 nM
- FC(F)(F)c1nc2c(OCCNCc3ccc(Cl)cc3)cc(Cl)cc2[nH]1 [Example 15]: 7.77 nM
- Cc1ccc(CNCCOc2cccc3[nH]c(C(F)(F)F)nc23)cc1 [Example 4]: 0.74 nM

Item c1csc(CNCCOc2cccc3[nH]cnc23)c1 [Example 11] : provide IC50
52.8 nM

Item FC(F)(F)c1ccc(CNCCOc2cccc3[nH]c(C(F)(F)F)nc23)cc1 [Example 17] : provide IC50
1.16 nM

Item FC(F)(F)c1nc2c(OCCNCc3cccc4ccccc34)cccc2[nH]1 [Example 10] : provide IC50
0.86 nM

Item FC(F)(F)C(F)(F)c1nc2c(OCCNCc3ccccc3)cccc2[nH]1 [Example 9] : provide IC50
1.41 nM

Item c1ccc(CNCCOc2cccc3nc[nH]c23)cc1 [Example 1] : provide IC50
26.7 nM

Item FC(F)(F)c1nc2c(OCCNCc3ccccc3)cc(Cl)cc2[nH]1 [Example 14] : provide IC50
1.42 nM

Sourced from patent US6127380A
